pIC50: −log10 of the molar value.
Here we gather pIC50 data for UniProt:P23977 reported by several publications.
Sequence (P23977 whole entry): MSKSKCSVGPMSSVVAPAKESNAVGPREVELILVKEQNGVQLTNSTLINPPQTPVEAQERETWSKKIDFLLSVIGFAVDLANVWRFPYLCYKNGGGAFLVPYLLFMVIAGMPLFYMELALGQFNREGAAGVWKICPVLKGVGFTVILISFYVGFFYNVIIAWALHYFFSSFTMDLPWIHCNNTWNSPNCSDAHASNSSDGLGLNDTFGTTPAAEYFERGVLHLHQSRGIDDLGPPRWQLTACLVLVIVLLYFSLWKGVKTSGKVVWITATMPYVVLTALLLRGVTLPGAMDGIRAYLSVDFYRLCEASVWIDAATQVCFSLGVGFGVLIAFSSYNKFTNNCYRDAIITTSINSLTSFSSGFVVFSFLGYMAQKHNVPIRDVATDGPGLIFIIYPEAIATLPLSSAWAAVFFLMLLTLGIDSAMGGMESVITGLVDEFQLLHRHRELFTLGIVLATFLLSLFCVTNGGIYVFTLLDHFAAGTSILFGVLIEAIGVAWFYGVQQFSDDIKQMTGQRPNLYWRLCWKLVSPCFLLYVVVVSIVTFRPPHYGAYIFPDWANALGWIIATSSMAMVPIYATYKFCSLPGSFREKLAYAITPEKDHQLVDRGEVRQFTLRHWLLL
reported-endpoint: pIC50

• CNCCC[C@@H](c1ccc(Cl)c(Cl)c1)c1cccc2ccccc12 = 6.68

1: CCN1CCc2c(sc3ccccc23)C(c2ccccc2)C1 (stereo unspecified)
2: Fc1ccc(N(CCCN2CCN(CCc3ccc(N=C=S)cc3)CC2)c2ccc(F)cc2)cc1
3: CNCCC[C@H](c1cccs1)c1cccc2[nH]ccc12
q: Rank items: key pIC50, increasing. Put the labels in the requested order and write them down.
a: 3, 1, 2
